Measured Percent Effect, listed per entry for reference.
# System: Wolbachia pipientis
# protocol: Anti-Wolbachia Cell-Based Screen
# Format: functional
# Parameters: scale not given: in the data most compounds retested in dose-response had high values
# setup.conditions: 5 µM
The campaign covered roughly 48,000 compounds. About 13,000 (27%) showed an effect of 50% or more. Some of the results follow.
Dear colleague, please return just the value in %, with no unit written.

(Q) Query (molecule): Cc1cc(CN2CCC(CNC(=O)c3ccc4[nH]cnc4c3)C2)[nH]n1 (configuration not stated) ; field requested: Percent Effect
(A) 4.896

New cases:
(Q) Query (molecule): OC1(CN2CCCCC2)CCN(c2nccc(C(F)(F)F)n2)C1 (configuration not stated) ; field requested: Percent Effect
(A) 108.3

(Q) Same thing, different molecule: CC(C)N1CCC2(CCCN(c3nccc(C(F)(F)F)n3)C2)CC1.O=C(O)C(F)(F)F
(A) -13.26

(Q) Same thing, different molecule: CC(C)OCCN(Cc1cccc(O)c1)C1CCC(O)CC1 (configuration not stated)
(A) -9.741

(Q) Same thing, different molecule: Cc1nn(CCO)c(C)c1CNC1CCc2c(F)cccc21 (configuration not stated)
(A) 1.037

(Q) Same thing, different molecule: CN(Cc1csc(-c2cccs2)n1)Cc1ncccc1C(=O)O
(A) 6.204

(Q) Same thing, different molecule: OC1(CN2CCCCC2)CCN(c2cccc(C(F)(F)F)n2)C1 (configuration not stated)
(A) 110.2
